tested-on: UniProtKB P34972
assay-name: Agonist activity at CB2 receptor (unknown origin) expressed in CHO cells assessed as induction of calcium mobilization by fluo-4 AM dye-based fluorescence assay relative to CP55940
Assay type: functional, cell-based
Quick reference for Emax among some compounds
Entry rule: numbers only, all in %.

{"compound": "CC(C)c1cc(N2CCOCC2)nnc1C(=O)NC1CCCCC1", "tested-on": "UniProtKB P34972", "value-units": "%", "value-reported": 91}
{"compound": "CC(C)c1cc(C(=O)NC2C3CC4CC(C3)CC2C4)nnc1N1CCCCC1 (stereo not given)", "tested-on": "UniProtKB P34972", "value-units": "%", "value-reported": 106}
{"compound": "CCCCNc1cc(C(C)C)c(C(=O)NC2C3CC4CC(C3)CC2C4)nn1 (stereo not given)", "tested-on": "UniProtKB P34972", "value-units": "%", "value-reported": 108}

Hi! What's the reported Emax for CC(C)c1cc(NC(C)C(C)C)nnc1C(=O)NC1C2CC3CC(C2)CC1C3 (stereo not given) on UniProtKB P34972?
77

Lookup CCCCNc1nnc(C(=O)NC2C3CC4CC(C3)CC2C4)cc1C(C)C (stereo not given)
93

---

Quick reference for Activity among some compounds
tested-on: Cannabinoid receptor 2 (Homo sapiens)
Sequence (P34972 whole entry): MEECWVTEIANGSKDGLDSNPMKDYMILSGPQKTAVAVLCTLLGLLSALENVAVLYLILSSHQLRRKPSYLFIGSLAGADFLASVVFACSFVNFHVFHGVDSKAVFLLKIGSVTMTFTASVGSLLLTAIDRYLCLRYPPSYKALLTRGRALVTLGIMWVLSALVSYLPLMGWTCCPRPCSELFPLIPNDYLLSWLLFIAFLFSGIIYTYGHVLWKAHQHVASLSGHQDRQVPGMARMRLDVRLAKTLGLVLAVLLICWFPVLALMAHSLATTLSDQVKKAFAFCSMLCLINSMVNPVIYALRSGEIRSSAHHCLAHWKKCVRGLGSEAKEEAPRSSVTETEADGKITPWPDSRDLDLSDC
assay-name: Agonist activity at CB2 receptor (unknown origin) expressed in CHO cells assessed as induction of calcium mobilization at 10 uM by fluo-4 AM dye-based fluorescence assay relative to CP55940
Assay type: functional, cell-based

Solved entries (count: 3):
{"compound": "CC(C)c1cc(NC2CCCC2)nnc1C(=O)NC1C2CC3CC(C2)CC1C3 (centres undefined)", "reported-metric": "Activity", "value-reported": "141%"}
{"compound": "CC(C)c1cc(NC2CCCC2)nnc1C(=O)NC1CCCCC1", "reported-metric": "Activity", "value-reported": "87.5%"}
{"compound": "CC(C)c1cc(C(=O)NC2C3CC4CC(C3)CC2C4)nnc1NCCO (centres undefined)", "reported-metric": "Activity", "value-reported": "124%"}

Hi! What's the reported Activity for CCCCNc1nnc(C(=O)NC2C3CC4CC(C3)CC2C4)cc1C(C)C (centres undefined) on Cannabinoid receptor 2 (Homo sapiens)?
97.1%

---

tested-on: Cannabinoid receptor 2 (Homo sapiens)
assay-name: Agonist activity at CB2 receptor (unknown origin) expressed in CHO cells assessed as induction of calcium mobilization at 10 uM by fluo-4 AM dye-based fluorescence assay relative to CP55940
Assay type: functional, cell-based
Label Yes when Activity is strictly below 90%; otherwise label No.

{"molecule": "CCC(CC)Nc1nnc(C(=O)NC2C3CC4CC(C3)CC2C4)cc1C(C)C (centres undefined)", "qualitative-label": "Yes"}
{"molecule": "CC(C)c1cc(NCCO)nnc1C(=O)NC1C2CC3CC(C2)CC1C3 (centres undefined)", "qualitative-label": "No"}
{"molecule": "CC(C)c1cc(NC2CCCC2)nnc1C(=O)NC12CC3CC(CC(C3)C1)C2", "qualitative-label": "No"}
{"molecule": "CC(C)c1cc(N2CCOCC2)nnc1C(=O)NC1CCCCC1", "qualitative-label": "Yes"}
{"molecule": "CC(C)c1cc(NCC2CC2)nnc1C(=O)NC1C2CC3CC(C2)CC1C3 (centres undefined)", "qualitative-label": "No"}

--- query ---
Does the reported Activity of CC(C)c1cc(NCCO)nnc1C(=O)NC12CC3CC(CC(C3)C1)C2 stay below 90%?
No

---

Quick reference for Activity among some compounds
tested-on: Cannabinoid receptor 1 (Homo sapiens, UniProt P21554)
Sequence (P21554 whole entry): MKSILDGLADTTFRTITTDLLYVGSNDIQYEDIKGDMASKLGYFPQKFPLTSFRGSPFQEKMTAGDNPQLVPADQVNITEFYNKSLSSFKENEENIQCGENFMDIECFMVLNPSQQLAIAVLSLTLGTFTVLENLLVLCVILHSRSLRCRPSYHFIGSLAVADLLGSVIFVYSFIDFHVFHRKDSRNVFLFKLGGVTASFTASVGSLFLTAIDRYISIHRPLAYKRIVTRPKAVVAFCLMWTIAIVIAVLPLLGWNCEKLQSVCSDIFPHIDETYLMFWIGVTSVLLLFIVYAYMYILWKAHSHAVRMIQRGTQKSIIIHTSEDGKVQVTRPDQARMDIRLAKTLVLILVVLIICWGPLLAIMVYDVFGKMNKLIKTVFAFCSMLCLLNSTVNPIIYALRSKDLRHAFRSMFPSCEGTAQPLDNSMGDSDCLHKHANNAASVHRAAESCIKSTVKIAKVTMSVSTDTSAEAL
assay-name: Agonist activity at CB1 receptor (unknown origin) expressed in CHO cells assessed as induction of calcium mobilization at 10 uM by fluo-4 AM dye-based fluorescence assay relative to CP55940
Type: functional, cell-based
Please report the result as a number followed by the unit.

{"compound": "CC(C)c1cc(C(=O)NC2C3CC4CC(C3)CC2C4)nnc1N1CCOCC1 (stereo unspecified)", "tested-on": "Cannabinoid receptor 1 (Homo sapiens, UniProt P21554)", "Activity": "-0.267%"}

Alright, here's another compound for you.
Hi! What's the reported Activity for CC(C)c1cc(N2CCCCC2)nnc1C(=O)NC1C2CC3CC(C2)CC1C3 (stereo unspecified) on Cannabinoid receptor 1 (Homo sapiens, UniProt P21554)?
16%

---

tested-on: Cannabinoid receptor 2 (Homo sapiens)
assay-name: Agonist activity at CB2 receptor (unknown origin) expressed in CHO cells assessed as induction of calcium mobilization by fluo-4 AM dye-based fluorescence assay relative to CP55940
Type: functional, cell-based
reported-metric: Emax (%)
Entry rule: numbers only, all in %.

Solved entries (count: 4):
{"compound": "CC(C)c1cc(C(=O)NC2C3CC4CC(C3)CC2C4)nnc1NCCO (stereo not given)", "Emax [%]": 127}
{"compound": "CC(C)c1cc(N2CCOCC2)nnc1C(=O)NC12CC3CC(CC(C3)C1)C2", "Emax [%]": 93}
{"compound": "CC(C)c1cc(Nc2cccc(Cl)c2)nnc1C(=O)NC1C2CC3CC(C2)CC1C3 (stereo not given)", "Emax [%]": 77}
{"compound": "CC(C)c1cc(NC2CCCC2)nnc1C(=O)NC12CC3CC(CC(C3)C1)C2", "Emax [%]": 80}

Which Emax is reported for this compound? CC(C)c1cc(N2CCOCC2)nnc1C(=O)NC1C2CC3CC(C2)CC1C3 (stereo not given)
91

---

tested-on: Cannabinoid receptor 2 (Homo sapiens)
assay-name: Agonist activity at CB2 receptor (unknown origin) expressed in CHO cells assessed as induction of calcium mobilization at 10 uM by fluo-4 AM dye-based fluorescence assay relative to CP55940
Assay type: functional, cell-based
reported-metric: Activity (%)
Entry rule: numbers only, all in %.

Solved entries (count: 7):
{"compound": "O=C(NC1C2CC3CC(C2)CC1C3)c1ccc(N2CCOCC2)nn1 (stereo not drawn)", "tested-on": "Cannabinoid receptor 2 (Homo sapiens)", "reported-metric": "Activity", "value-reported": 63.2}
{"compound": "O=C(NC1CCCCC1)c1ccc(N2CCOCC2)nn1", "tested-on": "Cannabinoid receptor 2 (Homo sapiens)", "reported-metric": "Activity", "value-reported": 17.7}
{"compound": "CC(C)c1cc(C(=O)NC23CC4CC(CC(C4)C2)C3)nnc1N1CCOCC1", "tested-on": "Cannabinoid receptor 2 (Homo sapiens)", "reported-metric": "Activity", "value-reported": 101}
{"compound": "CC(C)c1cc(NC(C)C(C)C)nnc1C(=O)NC1C2CC3CC(C2)CC1C3 (stereo not drawn)", "tested-on": "Cannabinoid receptor 2 (Homo sapiens)", "reported-metric": "Activity", "value-reported": 82}
{"compound": "O=C(NC12CC3CC(CC(C3)C1)C2)c1ccc(N2CCOCC2)nn1", "tested-on": "Cannabinoid receptor 2 (Homo sapiens)", "reported-metric": "Activity", "value-reported": 33.7}
{"compound": "CCCCNc1cc(C(C)C)c(C(=O)NC2C3CC4CC(C3)CC2C4)nn1 (stereo not drawn)", "tested-on": "Cannabinoid receptor 2 (Homo sapiens)", "reported-metric": "Activity", "value-reported": 91.4}
{"compound": "CC(C)c1cc(N2CCOCC2)nnc1C(=O)NC1C2CC3CC(C2)CC1C3 (stereo not drawn)", "tested-on": "Cannabinoid receptor 2 (Homo sapiens)", "reported-metric": "Activity", "value-reported": 126}

Alright, here's another compound for you.
Which Activity is reported for this compound? CC(C)c1cc(C(=O)NC2CCCCC2)nnc1N1CCOCC1
107

---

tested-on: Cannabinoid receptor 1 (Homo sapiens)
assay-name: Agonist activity at CB1 receptor (unknown origin) expressed in CHO cells assessed as induction of calcium mobilization at 10 uM by fluo-4 AM dye-based fluorescence assay relative to CP55940
Type: functional, cell-based
reported-metric: Activity
Please report the result as a number followed by the unit.

{"compound": "CC(C)c1cc(C(=O)NC23CC4CC(CC(C4)C2)C3)nnc1N1CCOCC1", "value-reported": "-2.98%"}
{"compound": "O=C(NC1CCCCC1)c1ccc(N2CCOCC2)nn1", "value-reported": "-3.69%"}
{"compound": "CCCCNc1cc(C(C)C)c(C(=O)NC23CC4CC(CC(C4)C2)C3)nn1", "value-reported": "10.7%"}

Alright, here's another compound for you.
Which Activity is reported for this compound? CCCCNc1nnc(C(=O)NC2C3CC4CC(C3)CC2C4)cc1C(C)C (centres undefined)
89.3%
